- MEASURED TARGET: B1R receptor of the rat (rB1R) (Rattus norvegicus, UniProt P97583)
- Construct: host or cells: CHO K1 cells
- Sequence (P97583 1-337): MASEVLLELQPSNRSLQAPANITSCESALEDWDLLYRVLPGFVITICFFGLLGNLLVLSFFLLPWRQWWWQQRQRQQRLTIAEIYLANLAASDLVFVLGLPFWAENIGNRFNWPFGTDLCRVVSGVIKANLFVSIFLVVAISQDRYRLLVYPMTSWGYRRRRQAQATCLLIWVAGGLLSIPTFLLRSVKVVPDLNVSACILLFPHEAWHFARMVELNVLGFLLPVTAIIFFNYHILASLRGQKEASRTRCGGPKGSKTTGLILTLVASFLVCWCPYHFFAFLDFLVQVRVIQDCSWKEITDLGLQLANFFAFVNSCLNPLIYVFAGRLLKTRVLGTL
- MEASUREMENT PROTOCOL: FLIPR Ca2+ assay on rB1R-transfected CHO K1 cells, antagonistic action
- Type: cell-based
- CONDITION: CHO-K1, 10 μM test substance; agonist Des-Arg9-bradykinin 100 nM; % of maximum achievable inhibition; read-out: rB1R [10 μM] % inhibition
Threshold rule: inhibition at 10 µM greater than or equal to 90% is class 1; below that, class 0.

q: Kindly determine if inhibition at 10 µM recorded for O=C(COC1CCCN(S(=O)(=O)c2c(Cl)cc(Cl)cc2Cl)C1)NC1CCC(c2ccccc2)(N2CCCC2)CC1 (centres unmarked) [Compound 194] is above or exactly 90%.
a: class 0

q: Now the same for COc1cc(C)c(S(=O)(=O)N2CCCCC2COCC(=O)N2CCC(c3ccccc3)(N(C)C)CC2)c(C)c1 (centres unmarked) [Compound 202]
a: class 1

q: Now the same for Cc1cc(S(=O)(=O)N2CCCCC2CCC(=O)N2CCC(c3ccccc3)(N(C)C)CC2)c(C)cc1Cl (centres unmarked) [Compound 123]
a: class 0

q: Now the same for CN(CC1CCC(CCc2ccccc2)(N2CCCC2)CC1)C(=O)CC1CCCCN1S(=O)(=O)c1cccc(C(F)(F)F)c1 (centres unmarked) [Compound 38]
a: class 1

q: Now the same for CN1CCN(C2(CCc3ccccc3)CCN(C(=O)COCC3CCc4ccccc4N3S(=O)(=O)c3ccc(Cl)c(Cl)c3)CC2)CC1 (centres unmarked) [Compound 116]
a: class 0

q: Now the same for CN(CCC1CCC(c2ccccc2)(N(C)C)CC1)C(=O)CC(NS(=O)(=O)c1ccc2ccccc2c1)c1ccccc1 (centres unmarked) [Compound 90]
a: class 1

q: Now the same for COc1cc(C)c(S(=O)(=O)N2CCCCC2COCC(=O)N(C)CCC2CCC(Cc3ccccc3)(N3CCCC3)CC2)c(C)c1 (centres unmarked) [Compound 68]
a: class 1

q: Now the same for COc1cc(C)c(S(=O)(=O)N2CCCC(COCC(=O)N(C)CC3CCC(CCc4ccccc4)(N4CCN(C)CC4)CC3)C2)c(C)c1 (centres unmarked) [Compound 182]
a: class 0

q: Now the same for CN(C)C1(c2ccccc2)CCC(NC(=O)CC2c3ccccc3CCN2S(=O)(=O)c2ccc(Cl)c(Cl)c2)CC1 (centres unmarked) [Compound 26]
a: class 0

q: Now the same for COc1cc(C)c(S(=O)(=O)N2CCCCC2COCC(=O)N(C)CCC2CCC(c3ccccc3)(N3CCCC3)CC2)c(C)c1 (centres unmarked) [Compound 60]
a: class 1

q: Now the same for CN1CCN(C2(Cc3ccccc3)CCN(C(=O)CC(NS(=O)(=O)c3ccc4ccccc4c3)c3ccccc3)CC2)CC1 (centres unmarked) [Compound 118]
a: class 0

q: Now the same for COc1cc(C)c(S(=O)(=O)N(C)CCOCC(=O)NC2CCC(c3ccccc3)(N3CCCCC3)CC2)c(C)c1C (centres unmarked) [Compound 28]
a: class 0

q: Now the same for COc1cc(C)c(S(=O)(=O)N(C)CCOCC(=O)N(C)CCC2CCC(Cc3ccccc3)(N3CCCC3)CC2)c(C)c1 (centres unmarked) [Compound 39]
a: class 1
